# test_details: Equilibrium solubility in simulated intestinal fluid, dual level DoE, fed arm
# Format: physicochemical
# condition_description: fed, current study (Figure 3)
assay_endpoint: statistical significance of DoE factor lecithin on equilibrium solubility

compound	assay_result
COc1ccc2c(c1)c(CC(=O)O)c(C)n2C(=O)c1ccc(Cl)cc1	NS ^e
CN1CC(=O)N2[C@H](c3ccc4c(c3)OCO4)c3[nH]c4ccccc4c3C[C@@H]2C1=O	NS ^e
CCOC(=O)C1=C(C)NC(C)=C(C(=O)OC)C1c1cccc(Cl)c1Cl (centres unmarked)	S ^d
C[C@@H](O[C@H]1OCCN(Cc2n[nH]c(=O)[nH]2)[C@H]1c1ccc(F)cc1)c1cc(C(F)(F)F)cc(C(F)(F)F)c1 [aprepitant]	NS ^e ^g
COc1cc(C(=O)NS(=O)(=O)c2ccccc2C)ccc1Cc1cn(C)c2ccc(NC(=O)OC3CCCC3)cc12	NS ^e
O=C1NC(=O)C(c2ccccc2)(c2ccccc2)N1	NS ^e
COc1ccccc1OCCNCC(O)COc1cccc2[nH]c3ccccc3c12 (centres unmarked)	NS ^e
CC(C)(Sc1cc(C(C)(C)C)c(O)c(C(C)(C)C)c1)Sc1cc(C(C)(C)C)c(O)c(C(C)(C)C)c1	NS ^e ^g

###

# test_details: Equilibrium solubility in simulated intestinal fluid, dual level DoE, fasted arm
# Type: physicochemical
# condition_description: fasted, current study (Figure 3)
assay_endpoint: statistical significance of DoE factor sodium oleate on equilibrium solubility

molecule	assay_result
C[C@@H](O[C@H]1OCCN(Cc2n[nH]c(=O)[nH]2)[C@H]1c1ccc(F)cc1)c1cc(C(F)(F)F)cc(C(F)(F)F)c1 [aprepitant]	S ^d
CC(C)(Sc1cc(C(C)(C)C)c(O)c(C(C)(C)C)c1)Sc1cc(C(C)(C)C)c(O)c(C(C)(C)C)c1	S ^d
O=C1NC(=O)C(c2ccccc2)(c2ccccc2)N1	S ^d
CN1CC(=O)N2[C@H](c3ccc4c(c3)OCO4)c3[nH]c4ccccc4c3C[C@@H]2C1=O	NS ^e ^g
COc1cc(C(=O)NS(=O)(=O)c2ccccc2C)ccc1Cc1cn(C)c2ccc(NC(=O)OC3CCCC3)cc12	NS ^e ^g
CCOC(=O)C1=C(C)NC(C)=C(C(=O)OC)C1c1cccc(Cl)c1Cl (centres unmarked)	S ^d
COc1ccc2c(c1)c(CC(=O)O)c(C)n2C(=O)c1ccc(Cl)cc1	NS ^e ^g
COc1ccccc1OCCNCC(O)COc1cccc2[nH]c3ccccc3c12 (centres unmarked)	NS ^e ^g

###

# test_details: Equilibrium solubility in simulated intestinal fluid, dual level DoE, fed arm
# Type: physicochemical
# condition_description: fed, current study (Figure 3)
assay_endpoint: statistical significance of DoE factor BS:PL on equilibrium solubility

compound	assay_result
COc1ccccc1OCCNCC(O)COc1cccc2[nH]c3ccccc3c12 (centres unmarked)	NS ^e
O=C1NC(=O)C(c2ccccc2)(c2ccccc2)N1	NS ^e
COc1ccc2c(c1)c(CC(=O)O)c(C)n2C(=O)c1ccc(Cl)cc1	NS ^e
C[C@@H](O[C@H]1OCCN(Cc2n[nH]c(=O)[nH]2)[C@H]1c1ccc(F)cc1)c1cc(C(F)(F)F)cc(C(F)(F)F)c1 [aprepitant]	NS ^e
CC(C)(Sc1cc(C(C)(C)C)c(O)c(C(C)(C)C)c1)Sc1cc(C(C)(C)C)c(O)c(C(C)(C)C)c1	NS ^e
COc1cc(C(=O)NS(=O)(=O)c2ccccc2C)ccc1Cc1cn(C)c2ccc(NC(=O)OC3CCCC3)cc12	NS ^e
CCOC(=O)C1=C(C)NC(C)=C(C(=O)OC)C1c1cccc(Cl)c1Cl (centres unmarked)	NS ^e
CN1CC(=O)N2[C@H](c3ccc4c(c3)OCO4)c3[nH]c4ccccc4c3C[C@@H]2C1=O	NS ^e
